Just for reference, patent US20250136559A1 is where these values come from.

- Subject Of Test: mouse SMO^WT (Mus musculus)
- Construct: expressed in transfected cells
- Sequence (P56726 33-793): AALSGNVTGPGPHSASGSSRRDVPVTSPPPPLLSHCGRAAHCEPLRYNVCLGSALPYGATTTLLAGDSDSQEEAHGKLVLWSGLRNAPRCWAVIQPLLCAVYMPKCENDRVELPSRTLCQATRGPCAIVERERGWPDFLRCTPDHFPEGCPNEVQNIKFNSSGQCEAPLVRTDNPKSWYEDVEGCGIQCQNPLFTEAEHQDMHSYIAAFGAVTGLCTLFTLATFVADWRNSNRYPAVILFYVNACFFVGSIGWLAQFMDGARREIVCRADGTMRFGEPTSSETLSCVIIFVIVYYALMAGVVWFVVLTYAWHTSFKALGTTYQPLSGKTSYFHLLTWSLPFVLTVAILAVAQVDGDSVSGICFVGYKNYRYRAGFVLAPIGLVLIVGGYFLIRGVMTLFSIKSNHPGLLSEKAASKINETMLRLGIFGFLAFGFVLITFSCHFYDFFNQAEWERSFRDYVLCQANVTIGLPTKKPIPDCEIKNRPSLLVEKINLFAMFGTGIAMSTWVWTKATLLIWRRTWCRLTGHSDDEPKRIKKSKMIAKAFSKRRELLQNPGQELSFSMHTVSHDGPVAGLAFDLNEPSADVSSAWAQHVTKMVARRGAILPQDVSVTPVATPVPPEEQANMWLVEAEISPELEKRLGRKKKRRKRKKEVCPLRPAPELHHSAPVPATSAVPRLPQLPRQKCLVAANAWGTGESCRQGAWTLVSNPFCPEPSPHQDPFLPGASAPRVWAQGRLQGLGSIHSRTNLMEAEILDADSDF
- Measurement Protocol: Mouse assay: Gli1 qPCR in MEF cells stably expressing mouse SMO WT; also: test concentration or dose not given here
- Assay type: cell-based
- Experimental Conditions: mSHh-treated, 24 hours, percentage Gli1 inhibition
Recorded Metric: Mouse WT % Inh (%)

{"columns": ["Sample Smiles", "Assay Value"],
 "data": [
  ["Cc1c(-c2ccc(NC(=O)c3ccc(Cl)c(CN4CCS(=O)(=O)CC4)c3)cc2)nn(C)c1C1CC1", 97.0],
  ["COc1ccc(-c2n[nH]c(-c3ccc(NC(=O)c4cccc(CN5CCS(=O)(=O)CC5)c4)cc3)n2)cc1", 99.0],
  ["O=C(Nc1ccc(-c2nc(C3CCCC3)n[nH]2)cc1)c1cccc(CN2CCS(=O)(=O)CC2)c1", 96.6],
  ["CC1(C)CN(Cc2cccc(C(=O)Nc3ccc(-c4nc(C5CC5)n[nH]4)cc3)c2)CCS1(=O)=O", 99.4],
  ["O=C(Nc1ccc(-c2nc(Cc3ccc4c(c3)OCCO4)n[nH]2)cc1)c1cccc(CN2CCS(=O)(=O)CC2)c1", 99.4],
  ["Cl.O=C(Nc1ccc(-c2nc(C3CC3)no2)cc1)c1cccc(CN2CCS(=O)(=O)CC2)c1", 99.7],
  ["O=C(Nc1ccc(-c2nc(C3CC3)n[nH]2)cc1)c1cc(F)cc(CN2CCS(=O)(=O)CC2)c1", 95.8],
  ["O=C(Nc1ccc(-c2cc(Cc3ccccc3)n[nH]2)cc1)c1cccc(CN2CCS(=O)(=O)CC2)c1", 99.3],
  ["O=C(Nc1ccc(-c2cc(C3CC3)n[nH]2)cc1)c1ccc(Cl)c(CN2CCS(=O)(=O)CC2)c1", 99.1],
  ["Cl.O=C(Nc1ccc(-c2noc(C3CC3)n2)cc1)c1cccc(CN2CCS(=O)(=O)CC2)c1", 99.6]
]}
